All values here come from patent US11952584B2.

Plate antimicrobial activity test Botrytis cinerea (level) for assorted sequences
Tested on: Botrytis cinerea
Assay type: cell-based
Details: peptide 1 μM; 25° C., 1 day or 2 days
Ends that are not written are not given here.
The reply should be a number, written without any unit.

Guide cases for Plate antimicrobial activity test Botrytis cinerea (level), answers given:
residues="RIWKGKTS (listed as Solanum lycopersicum) [TsORF18-2-8aa-16]" observed_measurement=0
residues="YYGFPAFS (listed as Solanum lycopersicum) [TsORF18-2-8aa-1]" observed_measurement=0
residues="YGFPAFSE (listed as Solanum lycopersicum) [TsORF18-2-8aa-2]" observed_measurement=0
residues="WRIWKGKT (listed as Solanum lycopersicum) [TsORF18-2-8aa-15]" observed_measurement=0
residues="ILLSLEIFERKFSRSVWYYGFPAFSERTRKFWRIWKGKTS [TsORF18-40aa]" observed_measurement=0

Qu. Field request: Plate antimicrobial activity test Botrytis cinerea (level) | item: ILLSLEIFERKFSRSVWYYGFP [TsORF18-1]
Ans. 0

Qu. Give its Plate antimicrobial activity test Botrytis cinerea (level) value. Item: ERTRKFWR (listed as Solanum lycopersicum) [TsORF18-2-8aa-9]
Ans. 0

Qu. // Plate antimicrobial activity test Botrytis cinerea (level) lookup, key: TRKFWRIW (listed as Solanum lycopersicum) [TsORF18-2-8aa-11]
Ans. 0

Qu. Need Plate antimicrobial activity test Botrytis cinerea (level), item RKFWRIWK (listed as Solanum lycopersicum) [TsORF18-2-8aa-12]
Ans. 0

Qu. Name the reported Plate antimicrobial activity test Botrytis cinerea (level) value associated with the sequence SERTRKFW (listed as Solanum lycopersicum) [TsORF18-2-8aa-8]
Ans. 0

---

Quick list: Plate antimicrobial activity test Colletotrichum destructivum (level) per entry.
Tested on: Colletotrichum destructivum
Assay type: cell-based
Conditions: peptide 100 μM; 25° C., 1 day or 2 days
Ends that are not written are not given here.

Worked examples follow.
residues="RIWKGKTS (listed as Solanum lycopersicum) [TsORF18-2-8aa-16]" observed_measurement=0
residues="SERTRKFW (listed as Solanum lycopersicum) [TsORF18-2-8aa-8]" observed_measurement=0
residues="YYGFPAFSERTRKFWRIWKGKT [TsORF18-2]" observed_measurement=3
residues="YGFPAFSE (listed as Solanum lycopersicum) [TsORF18-2-8aa-2]" observed_measurement=0
residues="FPAFSERT (listed as Solanum lycopersicum) [TsORF18-2-8aa-4]" observed_measurement=0

Qu. I am curious: what Plate antimicrobial activity test Colletotrichum destructivum (level) value has been reported for PAFSERTR (listed as Solanum lycopersicum) [TsORF18-2-8aa-5] ?
Ans. 0

Qu. Give its Plate antimicrobial activity test Colletotrichum destructivum (level) value. Item: KFWRIWKG (listed as Solanum lycopersicum) [TsORF18-2-8aa-13]
Ans. 3

Qu. What does the record list as Plate antimicrobial activity test Colletotrichum destructivum (level) for WRIWKGKT (listed as Solanum lycopersicum) [TsORF18-2-8aa-15] ?
Ans. 3

Qu. Entry under review: YYGFPAFS (listed as Solanum lycopersicum) [TsORF18-2-8aa-1] . Reported Plate antimicrobial activity test Colletotrichum destructivum (level)?
Ans. 0

---

Test system: Colletotrichum destructivum
Assay: Colletotrichum destructivum leaf inoculation test (Chinese cabbage leaf)
Assay type: in vivo
Conditions: peptide 1 μM, 25° C., 4 days, lesions by visual inspection
Description: In the present example, a suspension comprising Colletotrichum destructivum and a peptide to be tested was dropped on a plant leaf, and lesions were then observed by visual inspection to evaluate the antimicrobial activity of the tested peptide. First, the pores of Colletotrichum destructivum were suspended in water to result in a spore concentration of 5×10^5 spores/ml, so as to prepare a water suspension of spores. […]
Ends that are not written are not given here.
TEST READOUT: Leaf inoculation test Chinese cabbage/Colletotrichum destructivum

residues="FWRIWKGK (listed as Solanum lycopersicum) [TsORF18-2-8aa-14]" observed_measurement=Δ
residues="YYGFPAFSERTRKFWRIWKGKT [TsORF18-2]" observed_measurement=∘
residues="ILLSLEIFERKFSRSVWYYGFPAFSERTRKFWRIWKGKTS [TsORF18-40aa]" observed_measurement=Δ
residues="RKFWRIWK (listed as Solanum lycopersicum) [TsORF18-2-8aa-12]" observed_measurement=Δ
